Attribution: ChEMBL document CHEMBL5291721

target: UniProtKB P21397; type: functional
Sequence (P21397 whole entry): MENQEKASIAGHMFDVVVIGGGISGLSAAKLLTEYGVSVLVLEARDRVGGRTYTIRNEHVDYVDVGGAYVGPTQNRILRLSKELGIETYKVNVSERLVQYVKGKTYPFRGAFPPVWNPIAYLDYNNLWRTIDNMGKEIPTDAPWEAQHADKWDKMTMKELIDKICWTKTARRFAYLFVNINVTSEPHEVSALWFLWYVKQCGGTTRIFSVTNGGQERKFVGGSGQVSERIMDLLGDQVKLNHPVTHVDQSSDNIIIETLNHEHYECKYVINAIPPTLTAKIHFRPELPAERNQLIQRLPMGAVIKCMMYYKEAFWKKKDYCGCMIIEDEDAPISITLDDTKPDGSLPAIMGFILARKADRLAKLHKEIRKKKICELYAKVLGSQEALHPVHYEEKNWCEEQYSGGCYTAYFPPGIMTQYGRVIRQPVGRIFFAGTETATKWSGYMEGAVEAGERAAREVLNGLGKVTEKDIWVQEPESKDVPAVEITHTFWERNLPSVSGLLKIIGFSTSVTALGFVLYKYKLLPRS
PARAMETER: AC50

Here is how some compounds turned out for AC50.
Prompt line: Field request: AC50 | item: CCN(CC)C(=O)C1(c2ccccc2)CC1CN (centres undefined)
Response line: > 30 µM

Prompt line: Field request: AC50 | item: Nc1ccc(C(=O)O)c(O)c1
Response line: > 30 µM

Prompt line: Field request: AC50 | item: CC(=O)OCC(CCn1cnc2cnc(N)nc21)COC(C)=O
Response line: > 10 µM

Prompt line: Field request: AC50 | item: Cc1ccc(=O)n(-c2ccccc2)c1
Response line: > 30 µM

***
Prompt line: Field request: AC50 | item: CCOC(=O)Nc1ccc2c(c1)N(C(=O)CCN1CCOCC1)c1ccccc1S2
Response line: > 30 µM

Prompt line: Field request: AC50 | item: CC(=N)N1CC[C@H](SC2=C(C(=O)O)N3C(=O)[C@H]([C@@H](C)O)[C@H]3C2)C1
Response line: > 300 µM

Prompt line: Field request: AC50 | item: COc1cccc2c1C(=O)c1c(O)c3c(c(O)c1C2=O)C[C@@](O)(C(C)=O)C[C@@H]3O[C@H]1C[C@H](N)[C@H](O)[C@H](C)O1
Response line: > 30 µM

Prompt line: Field request: AC50 | item: CCn1cc(C(=O)O)c(=O)c2cc(F)c(N3CCN(C)CC3)cc21
Response line: > 30 µM

Prompt line: Field request: AC50 | item: OCCN1CCN(CC/C=C2/c3ccccc3Sc3ccc(Cl)cc32)CC1
Response line: > 10 µM

---

Biological target: Muscarinic acetylcholine receptor M2 (Homo sapiens, UniProt P08172); note: assay procedure not described here
Sequence (P08172 whole entry): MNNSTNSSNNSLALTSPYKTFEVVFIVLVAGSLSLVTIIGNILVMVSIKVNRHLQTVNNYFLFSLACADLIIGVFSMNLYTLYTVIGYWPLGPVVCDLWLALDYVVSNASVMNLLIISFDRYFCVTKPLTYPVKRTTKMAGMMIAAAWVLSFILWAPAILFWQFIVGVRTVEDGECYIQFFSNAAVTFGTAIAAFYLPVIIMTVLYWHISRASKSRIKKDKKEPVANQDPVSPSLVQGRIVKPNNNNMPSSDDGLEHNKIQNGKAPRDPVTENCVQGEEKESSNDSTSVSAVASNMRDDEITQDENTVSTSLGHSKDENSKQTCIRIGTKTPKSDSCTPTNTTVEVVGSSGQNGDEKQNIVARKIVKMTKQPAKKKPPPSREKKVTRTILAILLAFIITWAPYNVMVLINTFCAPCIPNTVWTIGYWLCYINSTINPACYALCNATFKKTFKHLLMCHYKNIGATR
Format: functional, cell-based
Parameter AC50: see the listing below.

Here is how some compounds turned out for AC50.
Prompt line: Lab request: please report AC50 under test system Muscarinic acetylcholine receptor M2 (Homo sapiens, UniProt P08172) for Cn1c(=O)c2[nH]cnc2n(C)c1=O [THEOPHYLLINE]; note: assay procedure not described here
Response line: > 10 µM

Prompt line: Lab request: please report AC50 under test system Muscarinic acetylcholine receptor M2 (Homo sapiens, UniProt P08172) for CC(=O)OCC(CCn1cnc2cnc(N)nc21)COC(C)=O [FAMCICLOVIR]; note: assay procedure not described here
Response line: > 10 µM

Prompt line: Lab request: please report AC50 under test system Muscarinic acetylcholine receptor M2 (Homo sapiens, UniProt P08172) for [H]/N=C(/N)N[C@H]1[C@H](O)[C@@H](O)[C@H](O[C@@H]2O[C@@H](C)[C@](O)(C=O)[C@H]2O[C@@H]2O[C@@H](CO)[C@H](O)[C@@H](O)[C@@H]2NC)[C@@H](N/C(N)=N\[H])[C@@H]1O [STREPTOMYCIN]; note: assay procedure not described here
Response line: > 30 µM

Prompt line: Lab request: please report AC50 under test system Muscarinic acetylcholine receptor M2 (Homo sapiens, UniProt P08172) for CC1(C)S[C@@H]2[C@H](NC(=O)[C@H](N)c3ccc(O)cc3)C(=O)N2[C@H]1C(=O)O [AMOXICILLIN]; note: assay procedure not described here
Response line: > 30 µM

Prompt line: Lab request: please report AC50 under test system Muscarinic acetylcholine receptor M2 (Homo sapiens, UniProt P08172) for C[C@@H]1CCC[C@H](C)N1NC(=O)c1ccc(Cl)c(S(N)(=O)=O)c1 [CLOPAMIDE]; note: assay procedure not described here
Response line: > 30 µM

Prompt line: Lab request: please report AC50 under test system Muscarinic acetylcholine receptor M2 (Homo sapiens, UniProt P08172) for C=C(C)[C@@H]1CCC(C)=C[C@H]1c1c(O)cc(CCCCC)cc1O [CANNABIDIOL]; note: assay procedure not described here
Response line: > 0.3 µM

Prompt line: Lab request: please report AC50 under test system Muscarinic acetylcholine receptor M2 (Homo sapiens, UniProt P08172) for CC[C@@H](CO)NC(=O)[C@@H]1C=C2c3cccc4[nH]cc(c34)C[C@H]2N(C)C1 [METHYLERGONOVINE]; note: assay procedure not described here
Response line: > 30 µM

Prompt line: Lab request: please report AC50 under test system Muscarinic acetylcholine receptor M2 (Homo sapiens, UniProt P08172) for COC(=O)N[C@@H](C)CNc1nccc(-c2cn(C(C)C)nc2-c2cc(Cl)cc(NS(C)(=O)=O)c2F)n1 [ENCORAFENIB]; note: assay procedure not described here
Response line: > 30 µM

***
Prompt line: Lab request: please report AC50 under test system Muscarinic acetylcholine receptor M2 (Homo sapiens, UniProt P08172) for CO[C@@]1(NC(=O)Cc2cccs2)C(=O)N2C(C(=O)O)=C(COC(N)=O)CS[C@@H]21 [CEFOXITIN]; note: assay procedure not described here
Response line: > 30 µM

Prompt line: Lab request: please report AC50 under test system Muscarinic acetylcholine receptor M2 (Homo sapiens, UniProt P08172) for CC[N+]1(C)CCCC(OC(=O)C(O)(c2ccccc2)c2ccccc2)C1 (stereo unspecified) [PIPENZOLATE]; note: assay procedure not described here
Response line: 0.023 µM

Prompt line: Lab request: please report AC50 under test system Muscarinic acetylcholine receptor M2 (Homo sapiens, UniProt P08172) for CCOC(=O)NNc1ccc(N(CC)CC(C)O)nn1 (stereo unspecified) [CADRALAZINE]; note: assay procedure not described here
Response line: > 30 µM
